- assayedTarget: Vif/EloB/C/CBFβ quaternary complex (full-length HIV-1 HXB2 Vif(1-192) / ElonginB 1-118 / ElonginC 17 (HIV-1 HXB2; human), P69720
- testName: fluorescence anisotropy, complex titrated into 25 nM 5-FAM peptide; Sd ± 4.2
endpointName: Kd (µM)
Your answer should be a plain number; it is taken to be in µM.

## Task Please report the recorded Kd for KQQWFDLFSDVH (modifications not checked) [Cul5(37-48) peptide] .
## Result 15.6

Origin of the recorded values: patent US20150268247A1
